Overview of recorded Rank (before) for various sequences
system_tested: MyD88^TIR (Homo sapiens, UniProt Q99836)
Construct: MyD88 (residues 148–296); 6xHis; made in house; host or cells: E. coli BL21 (DE3)
Sequence (Q99836 148-296): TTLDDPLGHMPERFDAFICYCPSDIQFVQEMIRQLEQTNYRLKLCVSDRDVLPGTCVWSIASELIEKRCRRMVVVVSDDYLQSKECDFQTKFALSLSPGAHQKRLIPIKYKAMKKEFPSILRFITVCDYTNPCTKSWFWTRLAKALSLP
experiment_notes: T‐Surf phage library (P8 and P3) selection against MyD88^TIR, four rounds, NGS read counts
Assay type: binding
applied_conditions: P3_MyD88: rank by count before grouping
Lab note: jot the number down without any unit.

Worked set:
EIVKFVLAKLVHLEHP | 2224
SSFRESLWRLLALNKR | 3228
SRYREGLWRLLELSKK | 3109
LKVESWRQALEKRAN | 383
EWIREQLRPALKAQ | 651
SENYATSPWALEKAGKL | 2984
GFLYQAFAREGLWRLLELSKK | 912
ARLPAICIVIWCSVA | 935

Sure, the documented Rank (before) for LVAHEISNNMKIFATI is 2283

Sure, the documented Rank (before) for SSFREGVWRLLEVSKK is 3148

Sure, the documented Rank (before) for NQWPNALTAAANLRGW is 3534

Sure, the documented Rank (before) for LKVESWHQAREKAGKL is 2518

Sure, the documented Rank (before) for QYSDTLLEHTANFRM is 2842
